Below, each entry is listed with its recorded log10(MIC).
system: clinical MDR Staphylococcus epidermidis isolates; assay: MIC, broth microdilution, 81 clinical MDR strains; type: cell-based; conditions: Staphylococcus epidermidis, mean of MIC values against clinical MDR-SE isolates; read-out: mean MIC
propertyName: log10(MIC) (log10 of the value in µg/mL)

compound | tgt | log10(MIC)
O=C(Nc1cccc(Cl)c1)NC1CCN(CCC(Oc2ccc(C(F)(F)F)cc2)c2cccs2)CC1 (stereo not drawn) [Compound 25] | clinical MDR Staphylococcus epidermidis isolates | 0.25
CC(=O)NC[C@H]1CN(c2ccc(N3CCOCC3)c(F)c2)C(=O)O1 [linezolid, reference compound] | clinical MDR Staphylococcus epidermidis isolates | 0.36
O=S(=O)(NC1CCN(CCC(Oc2ccc(C(F)(F)F)cc2)c2ccccc2)CC1)c1cccc(Cl)c1 (stereo not drawn) [Compound 12] | clinical MDR Staphylococcus epidermidis isolates | 1.31
O=S(=O)(NC1CCN(CCC(Oc2ccc(C(F)(F)F)cc2)c2cccs2)CC1)c1cccc(Br)c1 (stereo not drawn) [Compound 18] | clinical MDR Staphylococcus epidermidis isolates | 1.55
O=S(=O)(NC1CCN(CCC(Oc2ccc(C(F)(F)F)cc2)c2cccs2)CC1)c1cccc(Cl)c1 (stereo not drawn) [Compound 14] | clinical MDR Staphylococcus epidermidis isolates | 1.00
O=S(=O)(NC1CCN(CCC(Oc2ccc(C(F)(F)F)cc2)c2cccs2)CC1)c1cccc(C(F)(F)F)c1 (stereo not drawn) [Compound 21] | clinical MDR Staphylococcus epidermidis isolates | 1.60

###

tested on: clinical MDR Staphylococcus epidermidis isolates; assay: MIC, broth microdilution, 81 clinical MDR strains; type: cell-based; conditions: Staphylococcus epidermidis, clinical strain 5 (Table S2); read-out: MIC
Below is a list of entries, each paired with its recorded MIC value.
propertyName: MIC (µg/mL)

compound | propertyName | readoutValue
O=S(=O)(NC1CCN(CCC(Oc2ccc(C(F)(F)F)cc2)c2cccs2)CC1)c1cccc(Br)c1 (stereo not drawn) | MIC | 1.6
O=S(=O)(NC1CCN(CCC(Oc2ccc(C(F)(F)F)cc2)c2ccccc2)CC1)c1cccc(Cl)c1 (stereo not drawn) | MIC | 1.6
CC(=O)NC[C@H]1CN(c2ccc(N3CCOCC3)c(F)c2)C(=O)O1 [linezolid, reference compound] | MIC | 1.6
O=S(=O)(NC1CCN(CCC(Oc2ccc(C(F)(F)F)cc2)c2cccs2)CC1)c1cccc(Cl)c1 (stereo not drawn) | MIC | 3.12
O=C(Nc1cccc(Cl)c1)NC1CCN(CCC(Oc2ccc(C(F)(F)F)cc2)c2cccs2)CC1 (stereo not drawn) | MIC | 0.8
O=S(=O)(NC1CCN(CCC(Oc2ccc(C(F)(F)F)cc2)c2cccs2)CC1)c1cccc(C(F)(F)F)c1 (stereo not drawn) | MIC | 1.6

###

MBEC listing for selected compounds.
tested on: biofilm-producing Staphylococcus epidermidis strains; experiment: Biofilm eradication (MBEC Assay Kit); type: cell-based; settings: clinical strain 46 (Table S4)

compound | tgt | MBEC (µg/mL)
CC(=O)NC[C@H]1CN(c2ccc(N3CCOCC3)c(F)c2)C(=O)O1 [linezolid, reference compound] | biofilm-producing Staphylococcus epidermidis strains | 50
O=C(Nc1cccc(Cl)c1)NC1CCN(CCC(Oc2ccc(C(F)(F)F)cc2)c2cccs2)CC1 (stereo not shown) | biofilm-producing Staphylococcus epidermidis strains | 31.25
O=S(=O)(NC1CCN(CCC(Oc2ccc(C(F)(F)F)cc2)c2ccccc2)CC1)c1cccc(Cl)c1 (stereo not shown) | biofilm-producing Staphylococcus epidermidis strains | 125
O=S(=O)(NC1CCN(CCC(Oc2ccc(C(F)(F)F)cc2)c2cccs2)CC1)c1cccc(Cl)c1 (stereo not shown) | biofilm-producing Staphylococcus epidermidis strains | 125
